# Method Notes: Tanguay_ZF_120hpf_JAW_legacy: (Legacy) Oregon State University Tanguay Lab 120 Hour Post-fertilization zebrafish Assay for Jaw Malformation (AID 2283638)
Inconclusive results are not listed. Calls of active or inactive are those of the source. How the source made its calls: active means hit-call score of the fitted dose curve at least 0.9, where 1 is the maximum; inconclusive means response in the unintended direction; inactive means score below 0.9.
Choose one outcome from this list and give only that: active, inactive

Lookup: I would be grateful if you could indicate the recorded call for CC(=O)Nc1ccc(O)cc1 .
Found: inactive

Lookup: Queued: OCC(CO)(CBr)CBr
Found: inactive

Lookup: Queued: CCCCCCCCCCCCCCC
Found: inactive

Lookup: Queued: CN(C)CCOC(c1ccccc1)c1ccccc1
Found: active

Lookup: Queued: O=C(CCCN1CCC(O)(c2ccc(Cl)cc2)CC1)c1ccc(F)cc1
Found: active

Lookup: Queued: CCCCC=O
Found: active

Lookup: Queued: CCCCC(CC)C(=O)O (stereo not drawn)
Found: inactive

Lookup: Queued: Cc1[nH]nc2c1N=C(c1ccccc1Cl)c1cc([N+](=O)[O-])ccc1N2
Found: inactive
